Exercise: state measured Minimal inhibitory concentration (MIC) for each of the compounds provided.
# Test system: Candida albicans IFO. 1385
# measurement notes: In vitro antifungal activity, microbroth dilution MIC
# Type: cell-based
# recorded conditions: C. albicans IFO. 1385, RPMI-1640, 35° C., 4 to 48 hours
Could you kindly put the unit after your number?

Exercise: // lookup Minimal inhibitory concentration (MIC) for FC(=Cc1ccc2c(c1)OCO2)OCC1COC(Cn2ccnc2)(c2ccc(Cl)cc2Cl)O1 (stereo not drawn)
Solution: 1.56 µg/mL

Exercise: Another compound: Cc1ccc(C=C(F)OCC2COC(Cn3ccnc3)(c3ccc(F)cc3F)O2)cc1 (mixture of isomers)
Solution: 0.39 µg/mL

Exercise: Try the compound Cc1cc(C)cc(C(=C(F)OCC2COC(Cn3ccnc3)(c3ccc(Cl)cc3Cl)O2)C(F)(F)F)c1 (stereo not drawn)
Solution: 0.78 µg/mL

Exercise: Now the same for FC(OCC1COC(Cn2ccnc2)(c2ccc(Cl)cc2Cl)O1)=C(c1cc(Cl)cc(Cl)c1)C(F)(F)F (mixture of isomers)
Solution: 0.39 µg/mL

Exercise: Same again, this time with FC(OCC1COC(Cn2ccnc2)(c2ccc(F)cc2F)O1)=C(c1cccc(F)c1)C(F)(F)F (mixture of isomers)
Solution: 0.78 µg/mL

Exercise: Lookup FC(=Cc1ccccc1)OCC1COC(Cn2cncn2)(c2ccc(Cl)cc2Cl)O1 (mixture of isomers)
Solution: 3.13 µg/mL

Exercise: Now consider FC(=Cc1ccccc1)OC[C@H]1CO[C@](Cn2ccnc2)(c2ccc(Cl)cc2Cl)O1 (relative stereo) and answer again.
Solution: 3.13 µg/mL

Exercise: Also check FC(OCC1COC(Cn2ccnc2)(c2ccc(F)cc2F)O1)=C(c1cccc(C(F)(F)F)c1)C(F)(F)F (mixture of isomers)
Solution: 0.78 µg/mL

Exercise: Proceed to Cc1cc(C=C(F)OCC2COC(Cn3ccnc3)(c3ccc(Cl)cc3Cl)O2)ccc1Cl (stereo not drawn)
Solution: 0.78 µg/mL

Exercise: And what about the compound COc1cccc(C(=C(F)OCC2COC(Cn3ccnc3)(c3ccc(F)cc3F)O2)C(F)(F)F)c1 (mixture of isomers) ?
Solution: 0.78 µg/mL

Exercise: Also check FC(OCC1COC(Cn2ccnc2)(c2ccc(Cl)cc2Cl)O1)=C(c1cccc(Cl)c1)C(F)(F)F (stereo not drawn)
Solution: 1.56 µg/mL

Exercise: Follow-up item: Cc1cccc(C=C(F)OCC2COC(Cn3ccnc3)(c3ccc(Cl)cc3Cl)O2)c1 (stereo not drawn)
Solution: 0.78 µg/mL

Exercise: Also need FC(=Cc1cccc(Cl)c1)OCC1COC(Cn2ccnc2)(c2ccc(Cl)cc2Cl)O1 (stereo not drawn) , thanks.
Solution: 0.39 µg/mL

Exercise: Further, for FC(OCC1COC(Cn2ccnc2)(c2ccc(Cl)cc2Cl)O1)=C(c1ccc2c(c1)OCO2)C(F)(F)F (stereo not drawn) ?
Solution: 1.56 µg/mL

Exercise: Let us now turn to Cc1ccc(C(=C(F)OCC2COC(Cn3ccnc3)(c3ccc(Cl)cc3Cl)O2)C(F)(F)F)cc1 (stereo not drawn)
Solution: 0.78 µg/mL
